Test system: Mus musculus
Assay: Toxicity administered perorally was measured in mice
Format: organism-based
Conditions: in vivo, po
metric: LD50 (mmol/kg)
I only need the number, in mmol/kg, no unit after it.

Entry under test: COc1ccccc1C(OCCN1CCN(CCC(=O)O)CC1)c1ccccc1.O=C(O)/C=C\C(=O)O.O=C(O)/C=C\C(=O)O (centres undefined) . Its LD50 was 2.2

Entry under test: Cc1ccc(C(OCCN2CCN(CCC(=O)O)CC2)c2ccccc2)cc1.O=C(O)/C=C\C(=O)O.O=C(O)/C=C\C(=O)O (centres undefined) . Its LD50 was 2.3

Entry under test: O=C(CN1CCN(CCOC(c2ccccc2)c2ccccc2)CC1)N1CCOCC1.O=C(O)/C=C\C(=O)O.O=C(O)/C=C\C(=O)O.O=C(O)/C=C\C(=O)O . Its LD50 was 1.2

Entry under test: O=C(O)/C=C\C(=O)O.O=C(O)/C=C\C(=O)O.O=C(O)CCN1CCN(CCOC2c3ccccc3-c3ccccc32)CC1 . Its LD50 was 2.3

Entry under test: O=C(O)/C=C\C(=O)O.O=C(O)/C=C\C(=O)O.O=C(O)CCN1CCN(CCOC(c2ccccc2)c2cccc(C(F)(F)F)c2)CC1 (centres undefined) . Its LD50 was 1.8

Entry under test: O=C(O)/C=C\C(=O)O.O=C(O)/C=C\C(=O)O.O=C(O)CCN1CCN(CCOC(c2ccc(F)cc2)c2ccc(F)cc2)CC1 . Its LD50 was 1.1

Entry under test: CCOC(=O)CCN1CCN(CCOC(c2ccccc2)c2ccccc2Cl)CC1.Cl (centres undefined) . Its LD50 was 3.2

Hello, the source for this data is ChEMBL document CHEMBL1121384, in case you need it.
